Readings of TGI for the listed molecules
- System: HCC-2998 colon
- assay_comment: NCI tumour cell line growth inhibition, 48 h
quantity_kind: TGI

> print(dat)
                                   molecule  quantity.kind  measured.result
1  C/C(=C\COc1c2c(cc3c1CCO3)OC1(C=C2)OC(CC/C(C)=C/COc2c3ccoc3cc3oc(=O)ccc23)C(C)(C)O1)CCC(O)C(C)(C)O (centres undefined)            TGI         > 100 µM
2  COc1ccc(/C(CC2OC(=O)c3ccccc32)=N\NC(=O)C[N+](C)(C)C)cc1 (centres undefined)            TGI          30.9 µM
3  CCOC(=O)[C@@H](C)C[C@H](Cc1ccccc1)NC(=O)c1csc([C@@H](C[C@H](C(C)C)N(C)C(=O)[C@H](CC)NC(=O)[C@H]2CCCCN2C)OC(C)=O)n1            TGI        > 5.64 µM
4             CN1Cc2cc3c(cc2-c2ccccc21)OCO3            TGI         > 100 µM

---

- Test system: SNB-19 CNS
- assay_comment: NCI tumour cell line growth inhibition, 48 h
quantity_kind: TGI (µM)

> print(dat)
                      smiles.representation  quantity.kind  comparison.symbol  measured.result
1              COc1ccc2oc(C(=O)O)c3c2c1CCC3            TGI                  >              100
2  O=C(NCc1ccncc1)C12CC3CC(C1)CC(c1ccc(Cl)cc1)(C3)C2            TGI                  =             27.8
3  COc1ccc(OC)c(-c2cc(=O)c3c(OC)c(OC)c(OC)c(OC)c3o2)c1            TGI                  >              100
4  C/C(=C(\c1ccc(OCCN2CCCCCC2)cc1)c1ccc(OC(=O)Cc2ccccc2)cc1)c1ccc(Cl)cc1            TGI                  =             6.41
5   CC1=C([Te]c2ccc(O)cc2)C(=O)c2ccccc2C1=O            TGI                  =             10.7
6  COc1ccc2c(ccc3c(COC(=O)NC(C)C)c(COC(=O)NC(C)C)n(C)c32)c1            TGI                  >              100

---

- Tested on: ACHN renal
- assay_comment: NCI tumour cell line growth inhibition, 48 h; in the data active = GI50 below about 0.43 µM; inactive = the rest
Outcomes: active, inactive

compound	category_label
COc1cc(OC)c(NC(=O)c2cc3ccccc3cc2O)cc1Cl	inactive
N#CS.N=C=S.N=C=S.[Cu+2].[NH2-].[NH2-].[NH2-].[NH2-].c1ccc2ncccc2c1	inactive
CCc1ccc2c(c1)N(CCO)C1=C(C(=O)OC1)C2c1cccc(Cl)c1 (stereo unspecified)	inactive
C[C@H](CCCNCCCNCCCN)[C@H]1CC[C@H]2[C@@H]3[C@H](OCCCN)C[C@H]4C[C@H](OCCCN)CC[C@]4(C)[C@H]3C[C@H](OCCCN)[C@]12C	inactive
CN(C)CCCNC(=O)c1cncnc1Nc1ccc(OCc2cccc(F)c2)c(Cl)c1	inactive
CC[C@@]1(O)C(=O)OCc2c1cc1n(c2=O)Cc2c-1nc1cc3c(cc1c2C)OCO3	active
O=C1c2ccccc2-c2c1c1c(O)cccc1n2-c1ccccc1	inactive
CN1CC(CNC(=O)OCc2ccccc2)CC2c3cccc4c3c(cn4C)CC21 (stereo unspecified)	inactive
CCCCN(CCCC)CCCn1c(=O)c2c3ccccc3n(C)c2n2nnc(-c3ccccc3)c12	inactive
CC(=O)[C@@]1(O)[C@H](C)C[C@H]2[C@@H]3C=C(C)C4=Cc5c(cnn5-c5ccccc5)C[C@]4(C)[C@H]3[C@@H](O)C[C@@]21C	inactive
COc1ccc(-c2cc(-c3ccc(O)cc3)nc3n[nH]c(N)c23)cc1	inactive
COc1cc(O)c2c(c1)C(=O)c1cc3c(c(O)c1C2=O)C(OC1OC(C)C(O)C(O)C1OC)C(OC)C(C)(O)C3=O (stereo unspecified)	inactive
C=CN(C)S(C)(=O)=O	inactive
COc1cc(-c2nn(-c3cccc(NC(=O)c4ccc(N5CCOCC5)c(C(F)(F)F)c4)c3)cc2-c2ccncc2)ccc1Cl	inactive
COc1ccc(CNc2nc3cc(N)cc(N)c3nc2-c2ccccc2)cc1	inactive
C[C@H]1[C@H]2[C@H]3CC[C@@H]4[C@@]5(C)C/C(=C/c6cccnc6)C(=O)C(C)(C)[C@@H]5CC[C@@]4(C)[C@]3(C)CC[C@]23CO[C@]1(C)[C@@H](C(=O)/C=C\c1cccnc1)C3	inactive
Cc1ncsc1-c1ccc(CNC(=O)[C@@H]2C[C@@H](O)CN2C(=O)[C@@H](NC(=O)C2(C#N)CC2)C(C)(C)C)cc1	inactive
COc1cccc2c1c(C1=C(c3cn(C)c4ccccc34)C(=O)NC1=O)cn2C	inactive
O=C1OC(c2ccccc2)(c2cc(Br)c(O)c(Br)c2)c2ccccc21 (stereo unspecified)	inactive
C[n+]1ccc(-c2c3nc(c(-c4cc[n+](C)cc4)c4ccc([n-]4)c(-c4cc[n+](C)cc4)c4nc(c(-c5cc[n+](C)cc5)c5ccc2[n-]5)C=C4)C=C3)cc1.[I-].[Zn+2]	inactive
COc1ccc(-c2nc(N3CCN(C(=O)C4CCCCC4)CC3)c3c4c(sc3n2)CCCC4)cc1	inactive
